Test: self-splicing fitness, log relative to wild type (ln ratio); higher = more splicing; Tetrahymena group I intron in knt gene, E. coli kanamycin selection, DiMSum; sequences stand for … in CUCUCU…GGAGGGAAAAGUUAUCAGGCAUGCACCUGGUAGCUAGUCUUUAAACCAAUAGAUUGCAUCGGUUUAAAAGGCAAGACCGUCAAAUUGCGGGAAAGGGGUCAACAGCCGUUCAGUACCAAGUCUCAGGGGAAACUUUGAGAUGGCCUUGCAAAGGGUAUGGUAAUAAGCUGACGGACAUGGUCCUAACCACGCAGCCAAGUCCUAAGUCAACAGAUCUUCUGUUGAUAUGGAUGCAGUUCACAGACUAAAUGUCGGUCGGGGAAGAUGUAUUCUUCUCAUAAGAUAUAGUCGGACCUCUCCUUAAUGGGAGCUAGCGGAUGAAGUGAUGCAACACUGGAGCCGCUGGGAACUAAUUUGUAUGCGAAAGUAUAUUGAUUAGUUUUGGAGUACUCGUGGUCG;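 note: selection with 25 µg/mL kanamycin versus none on LB agar overnight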
Conditions: 37 °C
Assay Metric: self-splicing fitness (ln)

biopolymer_sequence=CUAAAGCAAUAUUACGGUUC assay_metric="self-splicing fitness (ln)" recorded_measurement=-2.68
biopolymer_sequence=UCUGAGCAAUAUUACGGAUG assay_metric="self-splicing fitness (ln)" recorded_measurement=-2.14
biopolymer_sequence=AGCAAGCAAUAUUACGUUUU assay_metric="self-splicing fitness (ln)" recorded_measurement=-1.71
biopolymer_sequence=UUCCAGCAAUAUUACGCCCA assay_metric="self-splicing fitness (ln)" recorded_measurement=-0.115
biopolymer_sequence=GAGUAGCAAUAUUACGAACA assay_metric="self-splicing fitness (ln)" recorded_measurement=-1.28
biopolymer_sequence=GUGGAGCAAUAUUACGAUUA assay_metric="self-splicing fitness (ln)" recorded_measurement=-1.68
biopolymer_sequence=AGUGAGCAAUAUUACGCAUA assay_metric="self-splicing fitness (ln)" recorded_measurement=-2.56
biopolymer_sequence=GCAUAGCAAUAUUACGAUAC assay_metric="self-splicing fitness (ln)" recorded_measurement=-0.915
biopolymer_sequence=GGCUAGCAAUAUUACGAUGU assay_metric="self-splicing fitness (ln)" recorded_measurement=-0.785
biopolymer_sequence=ACAUAGCAAUAUUACGGGAU assay_metric="self-splicing fitness (ln)" recorded_measurement=-0.904
biopolymer_sequence=UCUCAGCAAUAUUACGGUAC assay_metric="self-splicing fitness (ln)" recorded_measurement=-2.52
biopolymer_sequence=AUUAAGCAAUAUUACGGUGA assay_metric="self-splicing fitness (ln)" recorded_measurement=-0.588
biopolymer_sequence=UUGAAGCAAUAUUACGUAUA assay_metric="self-splicing fitness (ln)" recorded_measurement=-0.207
biopolymer_sequence=CACAAGCAAUAUUACGACUU assay_metric="self-splicing fitness (ln)" recorded_measurement=-2.47
biopolymer_sequence=AGAUAGCAAUAUUACGAGCG assay_metric="self-splicing fitness (ln)" recorded_measurement=-1.08
biopolymer_sequence=CAGUAGCAAUAUUACGAUUC assay_metric="self-splicing fitness (ln)" recorded_measurement=-2.27
